# Target System: Tubulin
# Assay Info: Inhibition of tubulin (unknown origin) polymerization measured every 1 min over 20 mins by fluorescence assay
Recorded Endpoint: IC50 (µM)
Write the number in µM without appending the unit.

stdin: Tell me reported IC50 for `COc1ccc(C(=O)Cn2nc(-c3cc(OC)c(OC)c(OC)c3)nc2N)cc1` , tested with Tubulin.
stdout: 9.4

* * *

# Test system: PANC-1
# Assay Info: Antiproliferative activity against human PANC-1 cells assessed as cell growth inhibition at 100 uM by MTT assay relative to control
# Type: functional
# Conditions: read-out: GI
Recorded Endpoint: inhibition of growth at 100 µM

Worked cases, inhibition of growth at 100 µM given:
stdin: Tell me reported inhibition of growth at 100 µM for `COc1cc(-c2nc(N)n(Cc3ccc(Cl)cc3)n2)cc(OC)c1OC` , tested with PANC-1.
stdout: 39%

stdin: Tell me reported inhibition of growth at 100 µM for `COc1cc(-c2nc(N)n(Cc3cc(OC(F)(F)F)cc(OC(F)(F)F)c3)n2)cc(OC)c1OC` , tested with PANC-1.
stdout: 71%

stdin: Tell me reported inhibition of growth at 100 µM for `COc1cc(-c2nc(N)n(CC(=O)c3ccc(C)cc3)n2)cc(OC)c1OC` , tested with PANC-1.
stdout: 17%

stdin: Tell me reported inhibition of growth at 100 µM for `COc1cc(-c2nc(N)n(Cc3ccc(C)cc3)n2)cc(OC)c1OC` , tested with PANC-1.
stdout: 53%

stdin: Tell me reported inhibition of growth at 100 µM for `COc1ccc(C(=O)Cn2nc(-c3cc(OC)c(OC)c(OC)c3)nc2N)cc1` , tested with PANC-1.
stdout: 57%

Further cases:
stdin: Tell me reported inhibition of growth at 100 µM for `COc1cc(-c2nc(N)n(CC(=O)c3cccc(Br)c3)n2)cc(OC)c1OC` , tested with PANC-1.
stdout: 51%

stdin: Tell me reported inhibition of growth at 100 µM for `COc1cc(-c2nc(N)n(CC(=O)c3ccc(F)c(F)c3)n2)cc(OC)c1OC` , tested with PANC-1.
stdout: 52%

stdin: Tell me reported inhibition of growth at 100 µM for `CCCc1ccc(NC(=O)Cn2nc(-c3cc(OC)c(OC)c(OC)c3)nc2N)cc1` , tested with PANC-1.
stdout: 91%

stdin: Tell me reported inhibition of growth at 100 µM for `COc1cc(-c2nc(N)n(CC(=O)Nc3ccc(Cl)cc3)n2)cc(OC)c1OC` , tested with PANC-1.
stdout: 12%

stdin: Tell me reported inhibition of growth at 100 µM for `COc1cc(-c2nc(N)n(CC(=O)Nc3cccc(C)c3)n2)cc(OC)c1OC` , tested with PANC-1.
stdout: 10%

stdin: Tell me reported inhibition of growth at 100 µM for `COc1ccc(NC(=O)Cn2nc(-c3cc(OC)c(OC)c(OC)c3)nc2N)cc1OC` , tested with PANC-1.
stdout: 14%

stdin: Tell me reported inhibition of growth at 100 µM for `COc1cc(-c2nc(N)n(CC(=O)c3ccc(Br)cc3)n2)cc(OC)c1OC` , tested with PANC-1.
stdout: 6%

stdin: Tell me reported inhibition of growth at 100 µM for `COc1cc(-c2nc(N)n(CC(=O)c3ccc(Cl)cc3)n2)cc(OC)c1OC` , tested with PANC-1.
stdout: 6%

stdin: Tell me reported inhibition of growth at 100 µM for `COc1cc(-c2nc(N)n(Cc3ccccc3F)n2)cc(OC)c1OC` , tested with PANC-1.
stdout: 5%

stdin: Tell me reported inhibition of growth at 100 µM for `COc1cc(-c2nc(N)n(CC(=O)Nc3ccc(C(C)C)cc3)n2)cc(OC)c1OC` , tested with PANC-1.
stdout: 22%

stdin: Tell me reported inhibition of growth at 100 µM for `COc1cc(-c2nc(N)n(CC(=O)Nc3ccc(C)cc3)n2)cc(OC)c1OC` , tested with PANC-1.
stdout: 5%

stdin: Tell me reported inhibition of growth at 100 µM for `COc1cc(-c2nc(N)n(Cc3cccc(C#N)c3)n2)cc(OC)c1OC` , tested with PANC-1.
stdout: 6%

stdin: Tell me reported inhibition of growth at 100 µM for `COc1cc(-c2nc(N)n(CC(=O)Nc3c(C)cc(C)cc3C)n2)cc(OC)c1OC` , tested with PANC-1.
stdout: 32%

stdin: Tell me reported inhibition of growth at 100 µM for `COc1cc(-c2nc(N)n(CC(=O)Nc3ccc(C(C)(C)C)cc3)n2)cc(OC)c1OC` , tested with PANC-1.
stdout: 93%

stdin: Tell me reported inhibition of growth at 100 µM for `COc1cc(-c2nc(N)n(Cc3ccc(F)cc3)n2)cc(OC)c1OC` , tested with PANC-1.
stdout: 7%

stdin: Tell me reported inhibition of growth at 100 µM for `COc1cc(-c2nc(N)n(CC(=O)Nc3ccc(C)cc3F)n2)cc(OC)c1OC` , tested with PANC-1.
stdout: 22%
